- Experiment notes: Healthy volunteer study of single and multiple-dose BTX 1503 5% Solution (BTX.2017.001): pharmacokinetics
- Assay type: in vivo, human (healthy volunteers)
- Experimental conditions: human, in vivo, 75 mg CBD/day, Cohort 2, 75 mg CBD/day, multiple dose phase; read-out: mean CBD trough level on Day 15
Measured attribute: concentration at 15 study day (ng/mL)
Give bare numbers, in ng/mL.

So for C=C(C)C1CCC(C)=CC1c1c(O)cc(CCCCC)cc1O (stereo not shown) [CBD] , the logged concentration at 15 study day turned out to be 0.781
